# Test system: BD140A
# Assay Details: qHTS cell viability (Cell Titer-Glo ATP quantitation)
# Format: cell-based
Property Label: IC50

> print(dat)
                                   compound  obs.value
1  O=C(Nc1ccc([N+](=O)[O-])cc1Cl)c1cc(Cl)ccc1O [niclosamide]     120 nM
